# Tested on: MCF7
# Method summary: Cytotoxicity against human MCF7 cells after 48 hrs by SRB assay
# Assay type: functional, cell-based
# Assay setup: MCF7, 48 h
Property: IC50 (µg/mL)

1) Cc1cc(NS(=O)(=O)c2ccc(-n3cnc4nc5c(c(C)c4c3=N)C(=O)CC(C)(C)C5)cc2)no1
2.6
2) Cc1cc(NS(=O)(=O)c2ccc(N/C=N/c3nc4c(c(C)c3C#N)CCCC4)cc2)no1
1.95
3) Cc1c(C#N)c(/N=C/Nc2ccc(S(N)(=O)=O)cc2)nc2c1C(=O)CC(C)(C)C2
2.62
4) Cc1c2c(nc3[nH]c(=S)n(-c4ccc(S(=O)(=O)Nc5ncccn5)cc4)c(=N)c13)CC(C)(C)CC2=O
9.19
5) Cc1c2c(nc3ncn(-c4ccc(S(N)(=O)=O)cc4)c(=N)c13)CC(C)(C)CC2=O
1.5
